Assay comment: binders of probe aFSTL3 on microarray, primary screen, stem cell growth factor project, biochemical, small-molecule microarray, fluorescence 635/667 (AID 1064);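 also: measures binding of the biotinylated anti-FSTL3 antibody to printed compounds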
Experimental setup: higher = more signal
composite z-score values for the compounds below.
Write the value as a bare number.

What does the data say about its composite z-score? Entry: CCOc1cc(C(O)C2C=CC3C(=O)N(C4CCCCC4)C(=O)C3N2Nc2ccc(OC)cc2)ccc1O (stereo unspecified)
0.26

// next record CC(C)(C)OC(=O)CC[C@]1(C(=O)O)N=C(c2ccc(OCCCO)cc2)O[C@H]1c1ccccc1CN=[N+]=[N-]
-0.169

One more compound: C=CCNC(=O)[C@@H]1[C@H]2C(=O)O[C@H](c3ccccc3)[C@H](c3ccccc3)N2[C@H](c2ccc(OCCO)cc2)[C@@]12C(=O)N(C(=O)OCCOC)c1ccc(C#CC3=CCCCC3)cc12
0.0698

Now the compound COCCOC(=O)N1C(=O)[C@@]2(c3cc(C#Cc4ccc(OC)cc4)ccc31)[C@H](C(=O)N1CCN(c3ncccn3)CC1)[C@H]1C(=O)O[C@H](c3ccccc3)[C@H](c3ccccc3)N1[C@@H]2c1ccccc1OCCO
-0.0234

And then CCOC(=O)C1=CC[C@@H](c2ccc([N+](=O)[O-])cc2)N(S(=O)(=O)c2ccc(C)cc2)[C@H]1c1ccccc1 , what is it?
-0.298

Continue with the next compound.
Report composite z-score for CCOC(=O)C[C@H]1[C@H](OC(=O)Cc2ccc3c(c2)OCO3)[C@@H](NC(=O)Cc2ccc(OC)cc2)c2cc(OCCCO)ccc2N1C(=O)c1ccccc1 please.
-0.244

* * *

compounds and their reported composite z-score
Test system: PRMT1 (protein arginine N-methyltransferase 1)
Assay comment: PRMT1 binders on small-molecule microarrays, primary screen, biochemical, small-molecule microarray, 635 nm fluorescence (AID 1088);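 also: binding of Prmt1 protein to compounds spotted on small-molecule microarray slides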
Experimental setup: small-molecule microarray binding, higher = more signal
API doc: respond with a numeric literal and nothing else, no unit.

Give recorded composite z-score with PRMT1 (protein arginine N-methyltransferase 1) for the following compound: O=C(CS)NCCCCCCNC(=O)[C@H]1C[C@H]2C(=O)N[C@@H](Cc3ccccc3)C(=O)N2[C@H]1c1cccc(OCCO)c1
1.54

What do you have for C=CCOC(=O)[C@@H]1[C@H]2C(=O)O[C@H](c3ccccc3)[C@H](c3ccccc3)N2[C@H](c2ccc(OCCOC(=O)[C@H]3C[C@H]4C(=O)N[C@@H](CCCCN(C)C)C(=O)N4[C@H]3c3cccc(OCCO)c3)cc2)[C@@]12C(=O)Nc1ccc(I)cc12 ?
1.56

Further cases:
Any idea what composite z-score came out for C=C(COC)/C(=C/C[C@@H](OC(=O)c1ccncc1)c1ccc(OCCO)cc1)c1cnc2ccccc2c1 on PRMT1 (protein arginine N-methyltransferase 1)?
1.54

Same lookup for COc1ccc([Si](C)(C)[C@H]2[C@H](CCn3cc([C@H](O)c4ccccc4)nn3)O[C@@]3(C(=O)N(Cc4ccc(N5CCOC5=O)cc4)c4ccccc43)[C@@H]2C)cc1 , please.
-0.562

Note, next up: C=CCOC(=O)[C@@H]1[C@H]2C(=O)O[C@H](c3ccccc3)[C@H](c3ccccc3)N2[C@H](c2ccc(OCCOC(=O)[C@H]3C[C@H]4C(=O)N[C@@H](CCCCNC(C)=O)C(=O)N4[C@H]3c3cccc(OCCO)c3)cc2)[C@@]12C(=O)Nc1ccc(I)cc12
1.54
